Test system: SK-OV-3
Assay: NCI tumour cell line growth inhibition, 48 h
Active and inactive are the calls of the source. Rule as the data show it: active = GI50 up to about 1.1 µM and inactive = higher.
Outcomes: active, inactive

{"COMPOUND": "NCCN1CCCCCc2ccccc21", "QUALITATIVE_LABEL": "inactive"}
{"COMPOUND": "CC(C)C1=CCC2C(=C1)CCC1C(C)(C(=O)O)CCCC21C (centres undefined)", "QUALITATIVE_LABEL": "inactive"}
{"COMPOUND": "CCOC(=O)Cn1nnc2cc(Nc3c(C)[n+]([O-])c4cc(F)c(OCC)cc4[n+]3[O-])ccc21", "QUALITATIVE_LABEL": "inactive"}
{"COMPOUND": "CN(C)c1ccc(/C=C(/NC(=O)c2ccccc2)c2nc3cc(Cl)ccc3[nH]2)cc1", "QUALITATIVE_LABEL": "inactive"}
{"COMPOUND": "CC1=C2C=CC(=O)C[C@@]2(C)CCC1", "QUALITATIVE_LABEL": "inactive"}
{"COMPOUND": "COc1cc(/C=C2/C(=O)N(C(=O)c3ccc(Cl)cc3)N=C2C)cc(OC)c1OC", "QUALITATIVE_LABEL": "inactive"}
{"COMPOUND": "Nn1c(=S)[nH]nc(/C=C/c2c(O)ccc3ccccc23)c1=O", "QUALITATIVE_LABEL": "inactive"}
{"COMPOUND": "CC(=O)O[C@H]1CC[C@H]2[C@@H]3CCC4=C/C(=N/OCCN(C)C)CC[C@]4(C)[C@H]3CC[C@]12C", "QUALITATIVE_LABEL": "inactive"}
{"COMPOUND": "CCC(C(=O)c1ccc(OC)c(OC)c1)N(C(=O)C(F)(F)F)C(C)c1ccccc1 (centres undefined)", "QUALITATIVE_LABEL": "inactive"}
{"COMPOUND": "Cc1cc(N(CCC#N)CCC#N)ccc1C(/N=N/c1ccc(Cl)cc1)=N\\NC(=O)c1ccccc1", "QUALITATIVE_LABEL": "inactive"}
{"COMPOUND": "COc1ccc2nc3n(c2c1)CCc1cc(OC)c(OC)cc1-3", "QUALITATIVE_LABEL": "inactive"}
{"COMPOUND": "O=C(NCCCCCCCCNC(=O)c1cccc2ccccc12)c1cccc2ccccc12", "QUALITATIVE_LABEL": "inactive"}
{"COMPOUND": "O=[N+]([O-])c1cnc(N(CCO)CCO)s1", "QUALITATIVE_LABEL": "inactive"}
{"COMPOUND": "Cc1nn(C(=O)c2ccncc2)c2c1C(c1ccccc1O)SC(=N)N2 (centres undefined)", "QUALITATIVE_LABEL": "inactive"}
{"COMPOUND": "CN1/C(=C\\N=O)C(C)(C)N(O)C1(C)C", "QUALITATIVE_LABEL": "inactive"}
{"COMPOUND": "C[C@@H]1C[C@H](O)[C@]2(O)O[C@@H]3C[C@@]4(C=O)[C@@H](CC[C@@H]5[C@@H]4CC[C@]4(C)[C@@H](C6=CC(=O)OC6)CC[C@]54O)C[C@H]3O[C@@H]2O1", "QUALITATIVE_LABEL": "active"}
{"COMPOUND": "COc1ccc2cc(C(=O)NCCCNC(=O)c3ccc4c(OC)c(OC)ccc4c3)ccc2c1OC", "QUALITATIVE_LABEL": "inactive"}
{"COMPOUND": "CC(C)=CCC/C(C)=C/Cc1c2c(c3oc(-c4ccc(O)c(O)c4)c(O)c(=O)c3c1O)C=CC(C)(C)O2", "QUALITATIVE_LABEL": "inactive"}
{"COMPOUND": "O=C(CCC(=O)Nc1cccc(Cl)c1)CC(=O)c1ccc(F)cc1", "QUALITATIVE_LABEL": "inactive"}
